The reported measurements were obtained from patent US20230295310A1.

# TARGET_OR_TEST_SYSTEM: T1, human CD3e/d (human, UniProt P07766 23-126; P04234 22-105)
# T1 construct: Bought soluble protein; also called hCD3e/d; human CD3/ed (Sino CT038-H2508H)
# T1 sequence (P07766 23-126, chain 1 of 2): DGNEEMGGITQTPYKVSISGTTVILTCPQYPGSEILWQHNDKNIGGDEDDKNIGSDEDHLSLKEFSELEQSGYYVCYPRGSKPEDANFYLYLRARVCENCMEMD
# T1 sequence (P04234 22-105, chain 2 of 2): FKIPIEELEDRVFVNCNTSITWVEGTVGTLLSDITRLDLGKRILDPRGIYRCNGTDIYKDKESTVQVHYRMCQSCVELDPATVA
# TEST: SPR (Carterra LSA), mAb on chip
Mark criterion met only when Kd stays strictly below 80 nM. Values equal to the cut-off are criterion not met.

- BINDER: "mAb 106 (antibody, V domains shown, VH and VL only) VH: QVQLVESGGGVVQPGRSLRLSCAASGFTFRSYGMHWVRQAPGKGLEWVAIIWYNGNKKDYVDSVKGRFTISRDNSKNTLYLQMNSLRAEDTALYYCARGPGYNWFDPWGQGTLVTVSS VL: DIQMTQSPPSLSASVGDRVTITCRASQRISSYLNWYQQKPGKAPKLLIYAASSLQSGVPSRFSGSGSGTDFTLTISSLQPEDFATYYCQQSDSFPLTFGGGTKVEII"
  CATEGORY: "criterion met"
- BINDER: "mAb 164 (antibody, V domains shown, VH and VL only) VH: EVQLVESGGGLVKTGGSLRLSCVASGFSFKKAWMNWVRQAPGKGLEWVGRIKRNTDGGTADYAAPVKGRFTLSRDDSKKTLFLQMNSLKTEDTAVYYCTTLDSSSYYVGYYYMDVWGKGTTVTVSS VL: DIQMTQSPSSVSASVGDRVTITCRASQDIKNWLAWYQQKPGKAPKLLIYTASSLQSGVPSRFSGSGSGTDFTLTIGSLQPEDFATYYCQQAHSLPITFGQGTRLEIK"
  CATEGORY: "criterion met"
- BINDER: "mAb 129 (antibody, V domains shown, VH and VL only) VH: EVQLVESGGDLVKTGGSLRLSCVASGFSFKKAWMNWVRQAPGKGLEWVGRIKRNTDGGATDYAAPVKDRFTLSRDDSKNTLYLQMNSLKTEDTAVYYCTTLDSSSWYVGYYYMDVWGKGTTVTVSS VL: DIHMTQSPSSVSASLGDRVTFTCRASQDINNWLAWYQQKPGKAPRLLIYTASSLQSGVPSRFSGSGSGTDFTLTISSLQPDDFATYYCQQAHSLPITFGQGTRLGIE"
  CATEGORY: "criterion met"
- BINDER: "mAb 120 (antibody, V domains shown, VH and VL only) VH: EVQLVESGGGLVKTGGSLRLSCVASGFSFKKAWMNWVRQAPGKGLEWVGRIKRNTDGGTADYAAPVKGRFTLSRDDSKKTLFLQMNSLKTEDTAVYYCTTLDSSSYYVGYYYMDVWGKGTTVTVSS VL: DIQMTQSPSSVSASVGDRVTITCRASQDINNWLAWYQQKPGKAPKLLIYTASSLQSGVPSRFSGSGSGTDFTLTIGSLQPEDFATYYCQQAHSLPITFGQGTRLEIK"
  CATEGORY: "criterion met"

Ask: Is 80 nM strictly greater than the binder's reported Kd? binder: mAb 210 (antibody, V domains shown, VH and VL only) VH: QVQLVESGGGVVQPGRSLRLSCAASGFTFSGYGMHWVRQAPGKGLEWLAIIYYNGNNRKYADSVKGRFTISRDNSKNTVSLQMNSLRVEDTAMYYCTRGDGYNWFVTWGQGTLVTVSS VL: EIVMTQSPATLSVSPGERAALSCRASQSVTSNLAWYHQKPGQAPRLLIYGASTRATGIPVRFSGSGSGTEFTLTISSLQSEDFAVYYCQQYNNWPLTFGGGTKVENK
Reply: criterion not met
